Attribution: PubChem BioAssay AID602215

# Test system: HL-1 cardiomyocytes, H2O2 injury, ATP luminescence, 2 h
# Test Summary: H2O2-induced HL-1 cell death suppression – ATP luminescence, dose response (AID 602215);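 further: potency is for protection so actives raise ATP signal against peroxide damage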
Calls of active or inactive are those of the source.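 How the source made its calls: active means IC50 of 20 µM or lower; inactive means the rest.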
Lab note: assign the record to one of Yes for active, No for inactive

Previously resolved entries follow.
Molecule: COc1ccc(Nc2nc(C(=O)N3CCc4cc(OC)c(OC)cc4C3)cs2)cc1
Experimental Target: HL-1 cardiomyocytes, H2O2 injury, ATP luminescence, 2 h
Class Label: Yes

Molecule: COc1cccc(Nc2nc3ccccc3n3cnnc23)c1
Experimental Target: HL-1 cardiomyocytes, H2O2 injury, ATP luminescence, 2 h
Class Label: No

q: Record lookup: outcome of this test for `C[C@H](NC(=O)c1nc[nH]c1C(=O)NCC(=O)OCc1ccccc1)c1ccccc1` ?
a: No

q: Repeat with COc1ccc(CCNC(=O)C(=O)NCC2CCCN2S(=O)(=O)c2ccccc2)cc1OC (stereo not given)
a: No

q: Repeat with `CC(=O)Nc1ccc(Nc2nc(-c3sc(NC(C)=O)nc3C)cs2)cc1`
a: No

q: Repeat with `COc1ccc(C(=O)O/N=C(/c2ccccc2)c2ccncc2)cc1OC`
a: No
